System: A549-GM130-SQSTM1
Test: phenotypically active (imaging signature differs from DMSO and reproducible) at any of 0.3-9 uM (binary (1 = active, 0 = inactive)); higher = active
Settings: treatment time: 24 h
Where a name gives a salt, the structure may show the parent alone.
Possible outcomes: YES (active), NO (inactive)

{"columns": ["COMPOUND", "TARGET OR TEST SYSTEM", "CLASS ASSIGNMENT"],
 "data": [
  ["COC(=O)/C=C/c1cccc(N(Cc2ccc(-c3ccc(N(C)C)cc3)cc2)C(=O)C2CCCCC2)c1", "A549-GM130-SQSTM1", "NO"],
  ["COC(=O)C1=CO[C@@H](O[C@@H]2O[C@H](CO)[C@@H](O)[C@H](O)[C@H]2O)[C@H]2[C@@H]1C(=O)C[C@@H]2C", "A549-GM130-SQSTM1", "NO"],
  ["CN1c2ccccc2C(=O)N2CCc3c([nH]c4ccccc34)[C@H]21", "A549-GM130-SQSTM1", "YES"],
  ["Nc1ncnc2c1c(-c1ccc(Oc3ccccc3)cc1)nn2C1CCCC1", "A549-GM130-SQSTM1", "YES"],
  ["N#C/C(=C(/N)Sc1ccc(N)cc1)c1ccccc1C(F)(F)F", "A549-GM130-SQSTM1", "YES"],
  ["CC(C)n1c(/C=C/[C@@H](O)C[C@@H](O)CC(=O)O)c(-c2ccc(F)cc2)c2ccccc21", "A549-GM130-SQSTM1", "YES"],
  ["CCCc1cc2c(N3CCN(C4=NCC(C)(C)S4)CC3)ncnc2s1 [MI 2 dihydrochloride]", "A549-GM130-SQSTM1", "YES"],
  ["Cn1cc(C2=C(c3ccc(Cl)cc3Cl)C(=O)NC2=O)c2ccccc21", "A549-GM130-SQSTM1", "YES"],
  ["N[C@@H](Cc1ccc(O)c(O)c1)C(=O)O", "A549-GM130-SQSTM1", "NO"],
  ["Cc1nc(=O)c2c([nH]1)CCSC2", "A549-GM130-SQSTM1", "NO"],
  ["Cc1ccc([N+](=O)[O-])cc1S(=O)(=O)N(C)C", "A549-GM130-SQSTM1", "NO"],
  ["C=CCc1ccccc1OC[C@@H](O)CNC(C)C [Alprenolol hydrochloride]", "A549-GM130-SQSTM1", "NO"],
  ["CCCCc1nc(Cl)c(CO)n1Cc1ccc(-c2ccccc2-c2nnn[nH]2)cc1", "A549-GM130-SQSTM1", "NO"],
  ["CN1CCN(C(=O)CN[C@H]2C[C@@H]2c2ccc(OCc3ccccc3)cc2)CC1 [RN 1 dihydrochloride]", "A549-GM130-SQSTM1", "YES"],
  ["COc1ccc(CC2c3cc(OC)c(OC)cc3CC[N+]2(C)CCC(=O)OCCCCCOC(=O)CC[N+]2(C)CCc3cc(OC)c(OC)cc3C2Cc2ccc(OC)c(OC)c2)cc1OC (stereo not drawn) [Atracurium besilate]", "A549-GM130-SQSTM1", "NO"],
  ["NS(=O)(=O)c1nn2cc(-c3ccccc3)nc2s1", "A549-GM130-SQSTM1", "YES"],
  ["CNNCc1ccc(C(=O)NC(C)C)cc1", "A549-GM130-SQSTM1", "NO"],
  ["COc1ccc(-c2cnc(-c3cccc4c3-c3ccccc3C4=O)o2)cc1", "A549-GM130-SQSTM1", "YES"]
]}
